The reported numbers originate from PubChem BioAssay.

- Test description: LAP4-GFP expression modulators in yeast, confirmation, cell-based, cherry picks, flow cytometry, mother/daughter gates (AID 2271);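 also: ratio of sample to DMSO plate mean so 100% equals DMSO level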
- Measurement context: S. cerevisiae LAP4-GFP strain, 3 h, measured here: daughter cell gate response, at 10 µM, stronger effect = higher value, 100 means same as DMSO control
Reported property: GFP response relative to DMSO (%)
One number for each entry, in %.

* CCOc1ccc(C(Nc2cccnc2)c2cc(Cl)c3cccnc3c2O)cc1 (stereo unspecified) | 144
* CCn1c(=O)c(C(=O)NCc2ccc(OC)c(OC)c2)c(O)c2ccccc21 | 92.8

List GFP response relative to DMSO for every entry below, keeping the order given.
1. CCOC(=O)c1cc2c(=O)n3ccccc3nc2n(CCOC)c1=NC(=O)C(C)(C)C
2. COc1ccc(C(=O)/C=C2/C(=O)Nc3ccccc32)cc1

Given back:
1. 92.6
2. 122

List GFP response relative to DMSO for every entry below, keeping the order given.
1. COc1ccc(C2CC(c3ccccc3)=NN2S(=O)(=O)c2ccccc2)c(OC)c1 (stereo unspecified)
2. CC(C)CC[n+]1ccccc1/C=C/c1ccc(N(C)C)cc1
3. O=C(c1ccc([N+](=O)[O-])o1)N1CCN(c2nc3c(F)cc(F)cc3s2)CC1
4. CCOC(=O)C(C(=O)OCC)C(C(=O)OCC)N1CCOCC1 (stereo unspecified)
5. Cc1cc(=O)n(-c2ccc3ccccc3n2)[nH]1

Given back:
1. 102
2. 108
3. 169
4. 158
5. 120

List GFP response relative to DMSO for every entry below, keeping the order given.
1. CN1/C(=C\C(=O)c2cccc(S(=O)(=O)N3CCCCC3)c2)C(C)(C)c2ccccc21
2. COC(=O)c1ccc(C(=O)NC(=S)Nc2ccc3nc(SC)sc3c2)cc1

Given back:
97.6
90.4

* * *

- Test description: LAP4-GFP expression modulators in yeast, confirmation, cell-based, cherry picks, flow cytometry, mother/daughter gates (AID 2271);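 also: ratio of sample to DMSO plate mean so 100% equals DMSO level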
- Measurement context: S. cerevisiae LAP4-GFP strain, 3 h, at 10 µM, stronger effect = higher value, 100 means same as DMSO control
For each record, write down the corresponding GFP response relative to DMSO.
One number for each entry, in %.

Examples with their reported GFP response relative to DMSO follow.
* COc1ccc(NC(=O)CCc2nc(-c3ccccc3F)no2)cc1 | 106
* O=C(NCCN1CCOCC1)c1ccc(CS(=O)(=O)Cc2ccccc2F)o1 | 98.6
* COc1ccccc1C(=O)NNC(=O)C(=O)Nc1cccc(Cl)c1C | 112
* Cc1ccc(C(C[N+](=O)[O-])Sc2ccc(N)cc2)cc1 (stereo unspecified) | 135
* CN1C(=O)c2cccc3c(Cl)ccc(c23)C1=O | 107
* COc1ccc(Sc2ncnc3onc(C)c23)cc1 | 118
* CCOC(=O)c1cc2c(=O)n3ccccc3nc2n(CCOC)c1=NC(=O)C(C)(C)C | 94.4
* CCOC(=O)c1c(C)oc2c1c(C(c1cccnc1)N1CCOCC1)c(O)c1ccccc12 (stereo unspecified) | 203

List GFP response relative to DMSO for every entry below, keeping the order given.
1. O=C(c1ccccc1)c1ccccc1N1C(=O)C=CC1=O
2. O=C(Nc1nc(-c2ccccc2)cs1)c1cccnc1
3. COC(=O)c1ccc(CS(=O)(=O)c2ccc(F)cc2)o1

Given back:
[266, 103, 98.9]
